# target: α-glucosidase (Saccharomyces cerevisiae, UniProt P53341)
# Sequence (P53341 whole entry): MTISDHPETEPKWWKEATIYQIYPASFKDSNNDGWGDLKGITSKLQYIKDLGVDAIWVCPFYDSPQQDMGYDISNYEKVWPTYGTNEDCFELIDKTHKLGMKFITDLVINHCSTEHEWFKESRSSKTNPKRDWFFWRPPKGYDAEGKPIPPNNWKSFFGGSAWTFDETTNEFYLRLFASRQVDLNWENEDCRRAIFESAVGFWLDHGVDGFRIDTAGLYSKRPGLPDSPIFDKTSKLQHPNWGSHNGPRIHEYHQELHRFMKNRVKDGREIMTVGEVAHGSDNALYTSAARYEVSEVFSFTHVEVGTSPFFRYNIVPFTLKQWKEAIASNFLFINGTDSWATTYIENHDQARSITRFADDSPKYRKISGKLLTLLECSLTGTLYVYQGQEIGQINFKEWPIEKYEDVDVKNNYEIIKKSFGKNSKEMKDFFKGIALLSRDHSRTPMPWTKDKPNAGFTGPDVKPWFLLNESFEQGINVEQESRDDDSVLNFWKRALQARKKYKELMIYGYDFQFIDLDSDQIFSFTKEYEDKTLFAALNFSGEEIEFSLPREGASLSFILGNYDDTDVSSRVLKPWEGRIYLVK
# measurement.notes: In vitro α-glucosidase inhibition assay
# Assay type: biochemical
# conditions.used: NA = not active, read-out: IC50 (µM) ± SEM α-glucosidase
# Description: Assay protocols for bioactivity were placed in electronic supplementary material. Synthesized diclofenac acid derivatives were screened for α-glucosidase inhibitory activity (table 2).
readout: IC50 (µM)
# number only, unit µM dropped from output

A selection of reference data follows.
Task: Fill in IC50 for "Fc1ccc(Nc2nnc(Cc3ccccc3Nc3c(Cl)cccc3Cl)s2)cc1" tested with α-glucosidase (Saccharomyces cerevisiae, UniProt P53341).
Result: 55

Task: Fill in IC50 for "Clc1ccc(Nc2nnc(Cc3ccccc3Nc3c(Cl)cccc3Cl)o2)cc1Cl" tested with α-glucosidase (Saccharomyces cerevisiae, UniProt P53341).
Result: 91

Task: Fill in IC50 for "CCCSc1nnc(Cc2ccccc2Nc2c(Cl)cccc2Cl)n1-c1ccc(F)cc1" tested with α-glucosidase (Saccharomyces cerevisiae, UniProt P53341).
Result: 92

The record that follows has no IC50 shown yet.
Task: Fill in IC50 for "Clc1cccc(Nc2nnc(Cc3ccccc3Nc3c(Cl)cccc3Cl)s2)c1Cl" tested with α-glucosidase (Saccharomyces cerevisiae, UniProt P53341).
Result: 46

---

In this section, each of the compounds is paired with its reported cell viability (%) at 0.25 mM.
# Tested on: mononuclear cells (MNCs)
# measurement.notes: Cellular viability assay on mononuclear cells
# Format: cell-based, human
# number only, unit % dropped from output

A selection of reference data follows.
Task: Return the recorded cell viability (%) at 0.25 mM value; entry: O=C(Cc1ccccc1Nc1c(Cl)cccc1Cl)NNC(=S)Nc1ccc(F)cc1 [4c]
Result: 62

Task: Return the recorded cell viability (%) at 0.25 mM value; entry: Fc1cccc(Nc2nnc(Cc3ccccc3Nc3c(Cl)cccc3Cl)s2)c1 [8b]
Result: 92

Task: Return the recorded cell viability (%) at 0.25 mM value; entry: Clc1cccc(Nc2nnc(Cc3ccccc3Nc3c(Cl)cccc3Cl)s2)c1Cl [8d]
Result: 98

Further cases:
Task: Return the recorded cell viability (%) at 0.25 mM value; entry: O=C(Cc1ccccc1Nc1c(Cl)cccc1Cl)NNC(=S)Nc1cccc(Cl)c1Cl [4d]
Result: 73

Task: Return the recorded cell viability (%) at 0.25 mM value; entry: Clc1cccc(Nc2nnc(Cc3ccccc3Nc3c(Cl)cccc3Cl)o2)c1Cl [7d]
Result: 62

Task: Return the recorded cell viability (%) at 0.25 mM value; entry: Fc1ccc(-n2c(S)nnc2Cc2ccccc2Nc2c(Cl)cccc2Cl)cc1 [5c]
Result: 96

---

# target: UniProtKB P08170
# Sequence (P08170 whole entry): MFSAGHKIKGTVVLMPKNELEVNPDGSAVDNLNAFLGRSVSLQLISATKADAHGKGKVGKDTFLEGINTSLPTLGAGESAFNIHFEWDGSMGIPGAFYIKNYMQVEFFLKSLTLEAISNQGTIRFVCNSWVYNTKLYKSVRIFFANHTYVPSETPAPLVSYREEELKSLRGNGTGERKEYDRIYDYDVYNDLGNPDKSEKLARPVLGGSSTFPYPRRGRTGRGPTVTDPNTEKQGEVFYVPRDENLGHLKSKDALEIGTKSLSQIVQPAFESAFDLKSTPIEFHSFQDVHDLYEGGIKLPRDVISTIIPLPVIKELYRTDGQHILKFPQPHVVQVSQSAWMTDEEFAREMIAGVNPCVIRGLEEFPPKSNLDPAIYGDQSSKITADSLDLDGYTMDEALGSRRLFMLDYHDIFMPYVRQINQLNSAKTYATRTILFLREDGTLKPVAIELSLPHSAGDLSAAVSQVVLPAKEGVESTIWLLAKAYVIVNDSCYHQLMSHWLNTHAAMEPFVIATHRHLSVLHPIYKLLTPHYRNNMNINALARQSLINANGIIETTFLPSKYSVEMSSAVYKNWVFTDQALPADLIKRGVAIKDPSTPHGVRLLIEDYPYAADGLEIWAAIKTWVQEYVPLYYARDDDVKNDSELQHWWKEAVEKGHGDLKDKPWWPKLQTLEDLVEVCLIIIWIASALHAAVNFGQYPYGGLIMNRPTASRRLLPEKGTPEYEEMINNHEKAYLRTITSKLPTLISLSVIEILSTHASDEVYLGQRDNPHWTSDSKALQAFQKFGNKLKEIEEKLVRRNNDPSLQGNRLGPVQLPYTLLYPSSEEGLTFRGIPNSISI
# measurement.notes: In vitro 15-lipoxygenase inhibition assay
# Format: biochemical
# conditions.used: read-out: IC50 (µM) ± SEM 15-LOX
readout: IC50 (µM)
# number only, unit µM dropped from output

A selection of reference data follows.
Task: Return the recorded IC50 value; entry: Sc1nnc(Cc2ccccc2Nc2c(Cl)cccc2Cl)n1-c1cccc(Cl)c1Cl [5d]
Result: 141

Task: Return the recorded IC50 value; entry: Fc1ccccc1-n1c(S)nnc1Cc1ccccc1Nc1c(Cl)cccc1Cl [5a]
Result: 14

Task: Return the recorded IC50 value; entry: Fc1cccc(-n2c(S)nnc2Cc2ccccc2Nc2c(Cl)cccc2Cl)c1 [5b]
Result: 61

Task: Return the recorded IC50 value; entry: Fc1cccc(Nc2nnc(Cc3ccccc3Nc3c(Cl)cccc3Cl)s2)c1 [8b]
Result: 97

Task: Return the recorded IC50 value; entry: Fc1ccc(Nc2nnc(Cc3ccccc3Nc3c(Cl)cccc3Cl)s2)cc1 [8c]
Result: 173

Task: Return the recorded IC50 value; entry: O=C(Cc1ccccc1Nc1c(Cl)cccc1Cl)NNC(=S)Nc1ccccc1F [4a]
Result: 163

The record that follows has no IC50 shown yet.
Task: Return the recorded IC50 value; entry: Clc1ccc(Nc2nnc(Cc3ccccc3Nc3c(Cl)cccc3Cl)s2)cc1Cl [8f]
Result: 156
